ASSAY SYSTEM: T1, human HSP90 protein 1 beta (HSPCB), two-hybrid fusion in pEG202 (human, UniProt P08238 1-724)
T1 construct: HSP90 protein 1 beta (HSPCB), human full length cDNA clone from Origene, cloned in the Not1 and Xho1 sites of pEG202; also called HuHSP90; huHSP90; source: yeast two-hybrid fusion
T1 sequence (P08238 whole entry, the tested form may be a part): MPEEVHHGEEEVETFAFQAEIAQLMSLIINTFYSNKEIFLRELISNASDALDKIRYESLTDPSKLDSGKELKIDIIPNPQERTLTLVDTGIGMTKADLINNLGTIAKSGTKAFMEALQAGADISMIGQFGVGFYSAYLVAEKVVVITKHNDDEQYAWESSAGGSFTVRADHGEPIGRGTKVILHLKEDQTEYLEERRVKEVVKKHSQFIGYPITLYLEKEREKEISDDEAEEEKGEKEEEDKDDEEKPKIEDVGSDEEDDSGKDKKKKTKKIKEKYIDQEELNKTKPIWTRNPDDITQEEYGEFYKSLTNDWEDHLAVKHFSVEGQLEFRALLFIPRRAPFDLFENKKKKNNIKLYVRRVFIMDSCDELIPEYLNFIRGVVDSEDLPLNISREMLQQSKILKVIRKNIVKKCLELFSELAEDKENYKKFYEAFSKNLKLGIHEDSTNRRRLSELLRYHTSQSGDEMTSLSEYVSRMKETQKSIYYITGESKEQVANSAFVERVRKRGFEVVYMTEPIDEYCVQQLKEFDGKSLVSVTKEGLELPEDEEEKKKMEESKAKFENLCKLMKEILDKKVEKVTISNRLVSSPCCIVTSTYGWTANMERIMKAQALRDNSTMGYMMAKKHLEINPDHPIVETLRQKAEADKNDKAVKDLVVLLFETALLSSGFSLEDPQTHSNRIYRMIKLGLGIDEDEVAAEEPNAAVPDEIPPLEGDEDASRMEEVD
MEASUREMENT PROTOCOL: two-hybrid; quantitative liquid beta-galactosidase assays; values as a percentage of the cdc6/TTC4 interaction
EXPERIMENTAL PARAMETERS: partners not purified
PROPERTY: two-hybrid beta-galactosidase, percentage of the cdc6/TTC4 interaction (%)
Could you give me the number in %? Just the number is fine.

human TTC4, two-hybrid fusion in pJG4.5 (natural protein, UniProt O95801 1-387, looked up, TTC4 (tetratricopeptide repeat protein 4), human; full length gene, insert amplified and cloned in the EcoR1 and Xho sites of pJG4.5; source: yeast two-hybrid fusion) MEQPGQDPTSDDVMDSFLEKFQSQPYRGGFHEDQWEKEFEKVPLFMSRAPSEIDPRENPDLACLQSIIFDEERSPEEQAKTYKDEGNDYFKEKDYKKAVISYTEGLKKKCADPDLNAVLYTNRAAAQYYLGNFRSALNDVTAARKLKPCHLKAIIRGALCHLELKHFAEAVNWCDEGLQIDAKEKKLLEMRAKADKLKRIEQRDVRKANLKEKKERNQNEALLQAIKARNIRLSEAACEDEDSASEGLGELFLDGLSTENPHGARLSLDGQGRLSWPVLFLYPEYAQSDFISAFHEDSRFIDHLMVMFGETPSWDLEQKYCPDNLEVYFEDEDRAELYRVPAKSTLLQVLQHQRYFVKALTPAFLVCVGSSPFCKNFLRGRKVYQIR; 100

Kindly consider the entry below.
Task: Name the recorded two-hybrid beta-galactosidase, percentage of the cdc6/TTC4 interaction for TTC4-125TA (42VD), two-hybrid fusion in pJG4.5 (natural protein, human, UniProt O95801 1-387, looked up, TTC4, human, with a point mutation reported in melanoma samples, made by site-directed mutagenesis in TTC4 (pJG4.5); also called TTC4 codon 42 V to D; source: yeast two-hybrid fusion) MEQPGQDPTSDDVMDSFLEKFQSQPYRGGFHEDQWEKEFEKDPLFMSRAPSEIDPRENPDLACLQSIIFDEERSPEEQAKTYKDEGNDYFKEKDYKKAVISYTEGLKKKCADPDLNAVLYTNRAAAQYYLGNFRSALNDVTAARKLKPCHLKAIIRGALCHLELKHFAEAVNWCDEGLQIDAKEKKLLEMRAKADKLKRIEQRDVRKANLKEKKERNQNEALLQAIKARNIRLSEAACEDEDSASEGLGELFLDGLSTENPHGARLSLDGQGRLSWPVLFLYPEYAQSDFISAFHEDSRFIDHLMVMFGETPSWDLEQKYCPDNLEVYFEDEDRAELYRVPAKSTLLQVLQHQRYFVKALTPAFLVCVGSSPFCKNFLRGRKVYQIR .
Result: 80
